biological target: D(2) dopamine receptor (Homo sapiens)
Sequence (P14416 whole entry): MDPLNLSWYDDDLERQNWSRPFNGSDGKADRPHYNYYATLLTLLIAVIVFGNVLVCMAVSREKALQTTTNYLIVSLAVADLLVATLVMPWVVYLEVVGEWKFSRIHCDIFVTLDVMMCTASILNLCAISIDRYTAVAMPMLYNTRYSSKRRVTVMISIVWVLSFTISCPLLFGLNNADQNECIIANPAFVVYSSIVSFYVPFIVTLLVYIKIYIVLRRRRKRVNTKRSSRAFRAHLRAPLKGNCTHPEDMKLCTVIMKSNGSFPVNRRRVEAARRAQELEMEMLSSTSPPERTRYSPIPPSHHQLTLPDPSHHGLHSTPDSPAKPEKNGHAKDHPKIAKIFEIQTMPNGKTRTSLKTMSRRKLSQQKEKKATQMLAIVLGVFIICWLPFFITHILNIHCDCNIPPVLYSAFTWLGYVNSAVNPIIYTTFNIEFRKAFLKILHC
MEASURED ATTRIBUTE: Ki
Number first, unit second: that is the form wanted.

-- ask Hello, please tell me recorded Ki for this one: C1=C(c2ccccc2)CCN(C[C@@H]2CCC=C(c3ccccc3)C2)C1 [CI-1007]
-- reply 25.5 nM

====

MEASURED ATTRIBUTE: pKi
Scale: negative log10 of molar concentration, which is what pKi denotes.

-- ask Give pKi for this entry on D(4) dopamine receptor (Homo sapiens): C1=C(c2ccccc2)CCN(C[C@@H]2CCC=C(c3ccccc3)C2)C1
Sequence (P21917 whole entry): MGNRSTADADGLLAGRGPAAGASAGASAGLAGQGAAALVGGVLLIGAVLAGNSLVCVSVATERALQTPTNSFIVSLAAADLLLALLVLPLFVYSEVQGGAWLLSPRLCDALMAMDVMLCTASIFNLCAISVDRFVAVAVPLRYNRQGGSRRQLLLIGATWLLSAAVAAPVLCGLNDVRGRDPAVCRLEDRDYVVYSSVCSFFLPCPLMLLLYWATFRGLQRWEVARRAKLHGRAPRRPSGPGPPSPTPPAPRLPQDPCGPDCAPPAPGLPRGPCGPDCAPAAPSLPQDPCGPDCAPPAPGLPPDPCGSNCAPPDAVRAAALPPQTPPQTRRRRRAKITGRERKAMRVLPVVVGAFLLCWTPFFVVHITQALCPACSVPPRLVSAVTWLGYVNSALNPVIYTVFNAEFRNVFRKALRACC
-- reply 7.04

====

biological target: D(2) dopamine receptor (Rattus norvegicus); experiment: In vitro inhibition of [3H]spiperone binding to Dopamine D2 receptor in rat striatum.
pIC50: −log10 of the molar value.
Rule: pIC50 under 7 gives 0, otherwise 1.

-- ask Test whether the molecule C1=C(c2ccccc2)CCCC1CN1CC=C(c2ccccc2)CC1 (stereo not given) records pIC50 of 7 or higher.
-- reply 0

-- ask Decide: is the reported value of pIC50 for C1=C(c2ccccc2)CCN(C[C@@H]2CCC=C(c3ccccc3)C2)C1 [CI-1007] equal to or greater than 7?
-- reply 1

-- ask Can C1=C(c2ccccc2)CC(CN2CCN(c3ncccn3)CC2)CC1 (stereo not given) be said to have pIC50 at or above 7?
-- reply 0

-- ask Entry C1=C(c2ccccc2)CC(CN2CC=C(c3cccs3)CC2)CC1 (stereo not given) : is its pIC50 no less than 7?
-- reply 0

-- ask Given the entry FC(F)(F)c1ccc(C2=CCC[C@@H](CN3CC=C(c4ccccc4)CC3)C2)cc1 , answer whether its pIC50 meets or surpasses 7.
-- reply 0

====

MEASURED ATTRIBUTE: Ki (nM)
// note: answer is a bare numeric in nM

-- ask For D(2) dopamine receptor (Rattus norvegicus, UniProt P61169), give Ki of the listed compound: C1=C(c2ccccc2)CCN(C[C@@H]2CCC=C(c3ccccc3)C2)C1
-- reply 53

====

Assign pIC50 to each entry below.
target: D(2) dopamine receptor (Rattus norvegicus, UniProt P61169); assay: In vitro inhibition of [3H]spiperone binding to Dopamine D2 receptor in rat striatum.
Sequence (P61169 whole entry): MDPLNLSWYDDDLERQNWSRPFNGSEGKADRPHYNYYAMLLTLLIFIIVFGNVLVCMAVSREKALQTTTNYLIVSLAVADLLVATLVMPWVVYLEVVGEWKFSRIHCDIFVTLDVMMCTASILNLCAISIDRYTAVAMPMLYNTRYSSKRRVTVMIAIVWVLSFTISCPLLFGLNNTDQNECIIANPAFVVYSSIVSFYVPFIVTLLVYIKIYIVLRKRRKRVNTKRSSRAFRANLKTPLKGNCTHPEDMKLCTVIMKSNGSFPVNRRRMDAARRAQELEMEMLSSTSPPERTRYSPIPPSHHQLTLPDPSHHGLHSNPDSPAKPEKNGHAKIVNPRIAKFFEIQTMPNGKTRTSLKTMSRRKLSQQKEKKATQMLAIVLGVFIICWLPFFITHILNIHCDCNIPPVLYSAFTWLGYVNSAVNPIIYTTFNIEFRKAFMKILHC
Entry type: numeric. Quantity: pIC50, the -log10 of concentration in molar units.

-- ask Give the value of pIC50 reported for the following: C1=C(c2ccccc2)CCN(C2CCC=C(c3ccccc3)C2)C1 (stereo not given)
-- reply 5.04

-- ask Please indicate pIC50 recorded for C1=C(c2ccccc2)CCC(CN2CC=C(c3ccccc3)CC2)C1 (stereo not given)
-- reply 6.00

-- ask Look up and state reported pIC50 for C1=C(c2ccccc2)CC(CN2CCN(c3ccccc3)CC2)CC1 (stereo not given)
-- reply 6.37

-- ask Identify pIC50 associated with the molecule C1=C(c2ccccc2)CCN(CC2CCCC=C2c2ccccc2)C1 (stereo not given)
-- reply 5.40

-- ask Input Cc1ccc(C2=CCC[C@@H](CN3CC=C(c4ccccc4)CC3)C2)cc1 , output reported pIC50.
-- reply 6.48

====

molecular target: D(1A) dopamine receptor (Rattus norvegicus, UniProt P18901); assay: Tested for binding affinity towards rat striatal dopamine receptor D1 using [3H]-SCH- 23390 as radioligand
Sequence (P18901 whole entry): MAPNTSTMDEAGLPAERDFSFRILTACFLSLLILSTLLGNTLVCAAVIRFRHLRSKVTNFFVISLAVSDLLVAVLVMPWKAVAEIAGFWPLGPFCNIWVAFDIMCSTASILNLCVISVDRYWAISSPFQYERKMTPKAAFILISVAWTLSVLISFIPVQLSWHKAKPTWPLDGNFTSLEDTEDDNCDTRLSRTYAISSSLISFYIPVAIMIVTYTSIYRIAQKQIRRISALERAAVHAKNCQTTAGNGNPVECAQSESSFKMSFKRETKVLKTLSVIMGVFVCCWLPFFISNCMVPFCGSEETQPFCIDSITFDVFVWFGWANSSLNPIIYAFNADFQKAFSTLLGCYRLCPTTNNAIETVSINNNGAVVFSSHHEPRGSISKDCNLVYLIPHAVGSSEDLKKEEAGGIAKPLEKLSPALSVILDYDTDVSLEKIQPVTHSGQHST
MEASURED ATTRIBUTE: Ki

-- ask Supply reported Ki belonging to this molecule: C1=C(c2ccccc2)CCN(C[C@@H]2CCC=C(c3ccccc3)C2)C1 [CI-1007]
-- reply > 10 µM

====

molecular target: D(2) dopamine receptor (Rattus norvegicus, UniProt P61169); test: Tested for binding affinity towards rat striatal D2 receptor using [3H]NPA as radioligand
MEASURED ATTRIBUTE: pKi
Please express pKi as -log10 of the molar concentration.

-- ask Specify reported pKi for the molecule shown: C1=C(c2ccccc2)CCN(C[C@@H]2CCC=C(c3ccccc3)C2)C1
-- reply 8.48

====

target: D(2) dopamine receptor (Rattus norvegicus, UniProt P61169); experiment: In vitro inhibition of [3H]spiperone binding to Dopamine D2 receptor in rat striatum.
Record form. Attribute: IC50. Fill in for each entry.
Answer in nM, number only, no unit symbol.

-- ask Please supply the value of reported IC50 for the item COc1ccc(C2=CCC[C@@H](CN3CC=C(c4ccccc4)CC3)C2)cc1
-- reply 100

-- ask Could you please provide reported IC50 for C1=C(c2ccccc2)CC(CN2CCN(c3ccccn3)CC2)CC1 (stereo not given) ? Thanks!
-- reply 141

-- ask Respond only with IC50 recorded for C1=C(c2ccccc2)CCN(CC2CCC=C(c3ccccc3)C2)C1 (stereo not given)
-- reply 112

-- ask Indicate the recorded IC50 value for this compound: Fc1ccc(C2=CCC[C@@H](CN3CC=C(c4ccccc4)CC3)C2)cc1
-- reply 76

-- ask Return reported IC50. Input compound: C1=C(c2ccccc2)CCN(C[C@H]2CCC=C(c3ccccc3)C2)C1
-- reply 113
